FYI, the data here is from patent US20250179059A1.

tested on: human SKM-1 acute myeloid leukemia cells; assay: SKM-1 antiproliferation cell-based assay (ATPlite); conditions: Homo sapiens, SKM-1, 96 h, SKM-1 antiproliferation assay, 4 days, Table C2
# GI50 values compiled below

Illustrative cases are given below, each with its answer.
CSc1ncc(-c2cc(F)cc(-c3ccc(-n4ccn(C)c4=O)c(Cl)c3)c2O)cc1N1CCN(C(C)(C)C)CC1 [Example 821]; 0.3 to 30 nM
C[C@@H]1CN(c2cncc(-c3cc(F)cc(-c4ccc(-n5ccn(C)c5=O)c(Cl)c4)c3O)c2)CCN1C [Example 474]; 0.3 to 30 nM
CC(=O)Nc1ncc(-c2cc(F)cc(-c3ccc(N4CCN(C)C4=O)c(Cl)c3)c2O)cc1N1CCNCC1 [Example 389]; 30 to 300 nM
Cn1ccn(-c2ccc(-c3cc(F)cc(-c4ccnc(N5CCN(CCCN)CC5)c4)c3O)cc2Cl)c1=O [Example 620]; 30 to 300 nM
CC1=CCN(c2ccc(-c3cc(F)cc(-c4ccnc(N5CCNCC5)c4)c3O)cc2Cl)C1=O [Example 366]; 30 to 300 nM

Incoming: Give the value of GI50 reported for the following: O=C1NCCCN1c1ccc(-c2cccc(-c3ccnc(N4CCNCC4)c3)c2O)cc1F [Example 277]
Outgoing: 300 to 3000 nM

Incoming: Specify measured GI50 for CC(=O)Nc1ccc(-c2cccc(-c3cc(F)nc(N4CCNCC4)c3)c2O)cc1F [Example 291] .
Outgoing: 300 to 3000 nM

Incoming: Please report the measured GI50 for Cc1ncc(-c2cc(F)cc(-c3ccc(-n4ccn(C)c4=O)c(Cl)c3)c2O)cc1N1CC2CCC(C1)N2C(C)C [Example 835]
Outgoing: 0.3 to 30 nM

====

system: human SKM-1 acute myeloid leukemia cells; test: SKM-1 antiproliferation cell-based assay (ATPlite); settings: Homo sapiens, SKM-1, 96 h, SKM-1 antiproliferation assay, 4 days, Table C2
# GI50 annotations

Incoming: Report GI50, nothing else, for this molecule: CN1CCC12CCN(c1cc(-c3cc(F)cc(-c4ccc(-n5ccn(C)c5=O)c(Cl)c4)c3O)ccn1)C2 (centres unmarked)
Outgoing: 0.3 to 30 nM

====

target: human BRD4 bromodomain II (Homo sapiens, UniProt O60885); construct: human BRD4 bromodomain II [based on Genbank NM_058243, residues 349-460]; host or cells: E. coli; assay: Bromodomain binding assay (AlphaScreen), BRD4 BDII; conditions: AlphaScreen assay, Table C2; read-out: BRD4 BDII IC50
ASSAY_READOUT: IC50

CC(=O)NC1(C)CCN(c2cc(-c3cc(F)cc(-c4ccc(-n5ccn(C)c5=O)c(Cl)c4)c3O)ccn2)C1 (stereo not shown); 0.01 to 1 nM
CC(=O)Nc1ccc(-c2cccc(-c3cccc(-c4nn[nH]n4)c3)c2O)cc1F; > 100 nM
Cn1ccn(-c2ccc(-c3cc(F)cc(-c4ccnc(N5C[C@@H](O)[C@@H](O)C5)c4)c3O)cc2Cl)c1=O; 0.01 to 1 nM
Cn1ccn(-c2ccc(-c3cc(F)cc(-c4ccnc(N5CCN(CCO)CC5)c4)c3O)cc2Cl)c1=O; 0.01 to 1 nM
Cc1cc(-c2cc(-c3cn[nH]c3)cc(N3CCNCC3)c2)c(O)c(-c2ccc(-n3ccn(C)c3=O)c(Cl)c2)c1; 1 to 10 nM

Incoming: Given `C[C@@H]1CN(c2cc(-c3cc(F)cc(-c4ccc(-n5ccn(C)c5=O)c(Cl)c4)c3O)cc(OCCCO)n2)CCN1` , respond with its IC50.
Outgoing: 0.01 to 1 nM

Incoming: Supply reported IC50 belonging to this molecule: `O=C1CCCN1c1ccc(-c2cc(F)cc(-c3ccnc(N4CC5(CNC5)C4)c3)c2O)cc1Cl`
Outgoing: 10 to 100 nM
